// reported Kd for each item listed
TESTED SYSTEM: T1, rat BCMA on cells (rat)
T1 construct: whole, on cells
TEST PROTOCOL: FACS, 293T-ratBCMA cells
# answer = value followed by unit

Entry under test: 9E12 (antibody, V domains shown, Chicken HybriFree-derived antibody; also called Antibody 43) VH: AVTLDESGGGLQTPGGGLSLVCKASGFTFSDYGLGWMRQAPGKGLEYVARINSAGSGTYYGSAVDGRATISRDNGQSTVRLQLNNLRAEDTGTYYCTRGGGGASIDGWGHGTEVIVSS VL: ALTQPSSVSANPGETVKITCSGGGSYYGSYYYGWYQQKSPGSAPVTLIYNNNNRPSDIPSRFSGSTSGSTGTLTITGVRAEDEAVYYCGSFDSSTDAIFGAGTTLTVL . Its Kd was 2.61 nM

Entry under test: 9A5 (antibody, V domains shown, Chicken HybriFree-derived antibody; also called Antibody 42) VH: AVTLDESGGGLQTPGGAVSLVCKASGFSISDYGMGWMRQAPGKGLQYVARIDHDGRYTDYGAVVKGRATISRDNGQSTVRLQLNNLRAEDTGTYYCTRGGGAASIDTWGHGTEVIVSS VL: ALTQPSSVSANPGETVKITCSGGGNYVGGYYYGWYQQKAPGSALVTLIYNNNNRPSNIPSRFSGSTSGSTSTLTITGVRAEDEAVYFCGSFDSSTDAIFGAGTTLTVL . Its Kd was 7.13 nM

Entry under test: 9H1 (antibody, V domains shown, Chicken HybriFree-derived antibody; also called Antibody 44) VH: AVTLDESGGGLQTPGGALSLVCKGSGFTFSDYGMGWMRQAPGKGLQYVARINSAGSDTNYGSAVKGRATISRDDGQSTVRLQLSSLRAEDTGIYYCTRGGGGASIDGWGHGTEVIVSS VL: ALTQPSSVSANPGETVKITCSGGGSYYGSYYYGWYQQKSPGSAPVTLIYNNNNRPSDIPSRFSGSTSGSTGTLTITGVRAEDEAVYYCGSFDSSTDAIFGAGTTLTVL . Its Kd was 1.32 nM

Provenance of the data: patent US20220362394A1
